Test system: DMS-114 complex spheroids with HUVEC/MSC, growth % test/control
Assay: Anticancer human tumor DMS-114 cell line growth inhibition [AhR];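 also: spheroids exposed to agents for 7 days before readout; 100% = DMSO vehicle control wells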
Conditions: second compound 0.1 µM; first compound 0.1 µM; active compounds read low
Observable: viability, T/C

>>> reported("COc1cc(Nc2ncc3c(n2)-c2ccc(Cl)cc2C(c2c(F)cccc2OC)=NC3)ccc1C(=O)O + Cc1cncc(-c2nc(NCCc3c[nH]c4ccccc34)c3ncn(C(C)C)c3n2)c1")
"23.1%"
>>> reported("CC1COCCN1c1cc(C2(S(C)(=N)=O)CC2)nc(-c2ccnc3[nH]ccc23)n1 (stereo not drawn) + Cc1cncc(-c2nc(NCCc3c[nH]c4ccccc34)c3ncn(C(C)C)c3n2)c1")
"96%"

In the following, a different compound is considered.
Request the reported viability, T/C associated with NS(=O)(=O)OCC1CC(n2ccc3c(NC4CCc5ccccc54)ncnc32)CC1O (stereo not drawn) + Cc1ccccc1N=Nc1ccc(NC(=O)c2ccnn2C)c(C)c1
84.8%
